From: patent US10870630B2

# testedOn: human α7 nicotinic acetylcholine receptor (α7 nAChR) (Homo sapiens, UniProt P36544)
# Sequence (P36544 23-502): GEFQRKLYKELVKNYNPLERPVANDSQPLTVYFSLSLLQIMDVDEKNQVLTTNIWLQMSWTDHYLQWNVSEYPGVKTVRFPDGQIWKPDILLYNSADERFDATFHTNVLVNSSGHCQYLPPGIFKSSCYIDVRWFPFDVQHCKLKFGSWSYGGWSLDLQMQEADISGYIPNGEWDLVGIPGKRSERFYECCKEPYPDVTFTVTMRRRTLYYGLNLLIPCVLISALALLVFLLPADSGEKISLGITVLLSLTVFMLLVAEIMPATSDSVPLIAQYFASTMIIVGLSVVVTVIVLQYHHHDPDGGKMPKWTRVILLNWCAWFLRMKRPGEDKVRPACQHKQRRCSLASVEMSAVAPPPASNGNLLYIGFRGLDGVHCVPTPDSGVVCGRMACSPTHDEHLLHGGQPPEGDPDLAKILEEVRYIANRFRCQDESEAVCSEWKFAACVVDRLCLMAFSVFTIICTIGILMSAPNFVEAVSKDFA
# experimentSummary: Automated patch-clamp electrophysiology functional assay (Assay A)
# Assay type: cell-based
# protocolConditions: HEK cell line stably expressing human RIC-3 and human α7; IonFlux HT whole-cell population patch; 40 μM acetylcholine; read-out: α7 nAChR EC50
pEC50: −log10 of the molar value.
parameterMeasured: pEC50

NS(=O)(=O)c1ccc([C@@H]2C[C@H]2c2nc3c(o2)CCCC3)cc1: 6.21
CC1(C)[C@H](c2ccc(S(N)(=O)=O)cc2)[C@H]1c1nc2ccccc2o1: 6.21
CC1(C)[C@@H](c2ccc(S(N)(=O)=O)cc2)[C@@H]1c1nc2ccc(F)cc2s1: 6.35
NS(=O)(=O)c1ccc([C@@H]2C[C@H]2c2nc3ccccc3o2)cc1: 6.80
CC1(C)[C@@H](c2ccc(S(N)(=O)=O)cc2)[C@@H]1c1nc2cc(Cl)ccc2o1: 6.37

[A] CC1(C)OC([C@H]2[C@H](c3ccc(S(N)(=O)=O)cc3)C2(F)F)=Nc2ccccc21
[B] NS(=O)(=O)c1ccc([C@@H]2C[C@H]2c2nc3ccc(F)cc3o2)cc1
Min pEC50? A | B Refer to your chosen item by its label in the answer. A
(A: 5.74, B: 7.22)

[A] Cn1ncc2cc(C3CC3c3ccc(S(N)(=O)=O)cc3)ccc21 (racemic)
[B] CC1(C)[C@@H](c2ccc(S(N)(=O)=O)cc2)[C@@H]1c1nc2ccc(F)cc2o1
[C] CC1(C)[C@@H](c2ccc(S(N)(=O)=O)cc2)[C@@H]1c1nc2ccccc2s1
[D] COc1cccc2oc([C@H]3[C@H](c4ccc(S(N)(=O)=O)cc4)C3(C)C)nc12
Falling order of pEC50, please. Labels, requested order. B, C, D, A

[a] CC1(C)[C@H](c2ccc(S(N)(=O)=O)cc2)[C@H]1c1nc2c(o1)CCC2
[b] NS(=O)(=O)c1ccc([C@@H]2[C@@H](c3nc4ccccc4o3)C2(F)F)cc1
[c] NS(=O)(=O)c1ccc([C@H]2[C@H](c3nc4ccccc4o3)C2(F)F)cc1
Falling order of pEC50, please. Labels, requested order. c, b, a

* * *

# testedOn: UniProt P36544
# experimentSummary: Automated patch-clamp electrophysiology functional assay (Assay A)
# Format: cell-based
# protocolConditions: HEK cell line stably expressing human RIC-3 and human α7; IonFlux HT whole-cell population patch; 40 μM acetylcholine; read-out: α7 nAChR EC50
# Method: The α7 nAChR positive allosteric modulator (PAM) activity of the present compounds may be tested using assays known in the art. […] The compounds were assessed for their ability to modulate the function of the human […] nAChR stably expressed in a HEK cell line both in the presence, and in the absence of the natural 07 agonist acetylcholine. By performing a series of such measurements at different concentrations, the effective concentration of the α7 nAChR PAMs (EC50) was determined. […]
parameterMeasured: EC50 (µM)

[A] CC1(C)[C@H](c2ccc(S(N)(=O)=O)cc2)[C@H]1c1nc2ccncc2o1 [Example D2]
[B] CC1(C)[C@H](c2ccc(S(N)(=O)=O)cc2)[C@H]1c1nc2ccc(F)cc2o1
Min EC50? A | B Refer to your chosen item by its label in the answer. B
(B: 0.3 µM, A: 3.4 µM)

* * *

# testedOn: UniProt P36544
# experimentSummary: Automated patch-clamp electrophysiology functional assay (Assay A)
# Format: cell-based
# protocolConditions: HEK cell line stably expressing human RIC-3 and human α7; IonFlux HT whole-cell population patch; 40 μM acetylcholine; read-out: α7 nAChR EC50
pEC50: −log10 of the molar value.
parameterMeasured: pEC50

CC1(C)[C@@H](c2ccc(S(N)(=O)=O)cc2)[C@@H]1c1nc2c(F)cc(F)cc2s1 [Example A3]: 6.02
CC1(C)[C@@H](c2ccc(S(N)(=O)=O)cc2)[C@@H]1c1nc2c(o1)CCCC2 [Example C3]: 6.92
NS(=O)(=O)c1ccc([C@H]2[C@H](c3nc4ccccc4s3)C2(F)F)cc1 [Example A8]: 7.42
CC1(C)[C@H](c2ccc(S(N)(=O)=O)cc2)[C@H]1c1nc2cccnc2o1 [Example 6]: 5.47
NS(=O)(=O)c1ccc(C2CC2c2ccc3cc(Cl)ncc3c2)cc1 (racemic) [Example E6]: 5.92

[P] CN1CCOc2cc(C3CC3c3ccc(S(N)(=O)=O)cc3)cnc21 (racemic) [Example E13]
[Q] NS(=O)(=O)c1ccc([C@@H]2C[C@H]2c2ncc3ccccc3n2)cc1 [Example 3]
Min pEC50? P | Q Refer to your chosen item by its label in the answer. P

[1] CC1(C)[C@H](c2ccc(S(N)(=O)=O)cc2)[C@H]1c1ncc2c(n1)CCCC2 [Example 12]
[2] CC1(C)[C@H](c2ccc(S(N)(=O)=O)cc2)[C@H]1c1nc2ccc(F)cc2s1 [Example B9]
Lab note: record which item had the higher pEC50, 1 or 2 . Refer to your chosen item by its label in the answer. 2
